assay: log P by reversed-phase HPLC analogously to OECD Guideline 117
Format: physicochemical
measurement_setup: pH 7.8
Method: The log P values were determined analogously to OECD Guideline 117 (EC Directive 92/69/EEC) by HPLC (high-performance liquid chromatography) using reversed-phase columns (C 18), by the following methods: [a] […] Calibration is effected with solutions of a homologous series of unbranched alkan-2-ones (having 3 to 16 carbon atoms) with known log P values (log P values determined on the basis of the retention times by linear interpolation between two successive alkanones).
Each entry below carries its reported logP (neutral).
// response body must contain only the number

Look over these answered cases.
structure_smiles_string | logP (neutral)
Cc1cc(Cl)c(NC(=O)C=C(N)C(F)(F)F)cc1SCC(F)(F)F | 3.99
Cc1cc(F)c(NC(=O)C=C(N)C(C)(F)F)cc1SCC(F)(F)F | 3.49
NC(=CC(=O)Nc1cc(SCC(F)(F)F)c(Cl)cc1F)C(F)(F)F | 3.73

## Task Look up logP (neutral): `NC(=CC(=O)Nc1ccc(Cl)c(SCC(F)(F)F)c1)C(F)(F)F`
## Result 3.65

====

assay: log P by reversed-phase HPLC analogously to OECD Guideline 117
Type: physicochemical
measurement_setup: reversed-phase C18 HPLC column; acidic range, pH 2.7, 0.1% aqueous formic acid/acetonitrile; read-out: logP (HCOOH)
Each entry below carries its reported chromatographic logP.

Look over these answered cases.
compound | chromatographic logP
Cc1cc(C)c(SCC(F)(F)F)cc1NC(=O)/C=C(\N)C(F)(F)F | 3.63
Cc1cc(F)c(NC(=O)/C=C(\N)C(F)(F)F)cc1SCC(F)(F)F | 3.61

## Task Look up chromatographic logP: `Cc1cc(C)c(-n2cnc(C(F)(F)F)cc2=O)cc1SCC(F)(F)F`
## Result 3.56

## Task Look up chromatographic logP: Cc1cc(F)c(-n2cnc(C(F)(F)F)cc2=O)cc1[S+]([O-])CC(F)(F)F (stereo not drawn)
## Result 2.4

## Task Look up chromatographic logP: Cc1cc(C)c([S+]([O-])CC(F)(F)F)cc1-n1cnc(C(F)(F)F)cc1=O (racemic)
## Result 2.43

## Task Look up chromatographic logP: `Cc1cc(F)c(-n2cnc(C(F)(F)F)cc2=O)cc1SCC(F)(F)F`
## Result 3.42

====

assay: log P by reversed-phase HPLC analogously to OECD Guideline 117
Type: physicochemical
measurement_setup: acidic range, pH 2.7, 0.1% aqueous formic acid/acetonitrile; read-out: logP (HCOOH)
measurement_type: chromatographic logP

structure_smiles_string | chromatographic logP
Cc1cc(F)c(NC(=O)/C=C(\O)C(F)(F)F)cc1SCC(F)(F)F | 2.77

Please turn your attention to the following entry.
## Task Look up chromatographic logP: `Cc1cc(C)c(SCC(F)(F)F)cc1NC(=O)/C=C(\O)C(F)(F)F`
## Result 2.87
